The reader will find reported half-life at 1 μM values listed item by item below.
- run_description: Microsomal metabolic stability, human
- Format: in vitro ADME
- assay_setup: pooled liver microsomes, pH 7.4, read-out: Metab. stab, human t1/2
Value expressed in min; do not type the unit.

Below: 3 compounds and their reported half-life at 1 μM.
molecule: COc1cc(C)c(S(=O)(=O)NCCc2ccccc2O)c(C)c1
half-life at 1 μM (min): 14
--
molecule: Cc1cc(Cl)c(S(=O)(=O)NCCc2ccccc2O)c(C)c1O
half-life at 1 μM (min): 36
--
molecule: Cc1cc(O)cc(C)c1S(=O)(=O)NCCc1ccccc1O
half-life at 1 μM (min): 69

Now for a further compound.
// recorded half-life at 1 μM for "COc1cc(C)c(S(=O)(=O)NCCc2ccccc2Cl)c(C)c1" : 2
